# Test system: S. aureus ATCC 29213 (MSSA)
# ASSAY_DETAILS: Broth dilution MIC, S. aureus ATCC 29213
# Type: cell-based
# CONDITION_NOTES: Staphylococcus aureus, Table 3; starting at 4 μg/ml; read-out: MIC S. aureus ATCC 29213
PARAMETER_MEASURED: MIC (µg/mL)
The figure you give is taken to be in µg/mL; do not add the unit.

Kindly note the recorded MIC for c1cncc(Nc2ccc(-c3cc4ccc(C5=NCCN5)cc4[nH]3)cc2)c1 , which is 1

Kindly note the recorded MIC for c1cc(C2=NCCN2)ccc1Nc1ccc(-c2cc3ccc(C4=NCCN4)cc3[nH]2)cc1 , which is 0.25

Kindly note the recorded MIC for c1cnc(-c2ccc(Nc3ccc(-c4cc5ccc(C6=NCCN6)cc5[nH]4)cc3)cc2)cn1 , which is 0.5

Kindly note the recorded MIC for c1ccc(-c2ccc(Nc3ccc(-c4cc5ccc(C6=NCCN6)cc5[nH]4)cc3)cc2)nc1 , which is 1
